Measured values drawn from PubChem BioAssay (NCI) for this set.

growth inhibition: recorded values
test: NCI Yeast Anticancer Drug Screen. Data for the rad50 strain (AID 155);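 also: 0% = growth of vehicle-only cultures of the same strain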; settings: S. cerevisiae rad50 strain growth inhibition; at 50.0 µM; stronger effect = higher value
Compounds without any hit were thinned out: in the full panel of roughly 79,000, 15% have a hit.
Entry rule: numbers only, all in %.

Worked examples, 8 molecules total:
INSERT INTO assay_data (molecule, recorded_endpoint, measured_number) VALUES
  ('Cc1ccncc1.[O]=[Ge].[O]=[Ge].[O]=[Ge].[O]=[Ge].[O]=[Ge].[O]=[Ge][OH].[O]=[Ge][OH]', 'growth inhibition', -27.3),
  ('CNC(=O)CC(=O)NC', 'growth inhibition', -20.4),
  ('COC1CC(N=[N+]=[N-])C(OS(C)(=O)=O)C(C)O1 (stereo unspecified)', 'growth inhibition', -2.35),
  ('CC[N+](C)(C)CC(O)(O)C(F)F', 'growth inhibition', -28.1),
  ('CN(Cc1ccc(Cl)cc1)C(=O)NCCCCCCNC(=O)N(C)Cc1ccc(Cl)cc1', 'growth inhibition', 96.8),
  ('COC(=O)CCC(=O)CC(=O)C(=O)Nc1ccc(F)cc1', 'growth inhibition', 3.2),
  ('O=C(O)CN1CCN(CC(=O)O)CCN(CC(=O)O)CCN(CC(=O)O)CC1', 'growth inhibition', -7.95),
  ('C/C=C/C(C/C=C(\C)CO[Si](C)(C)C(C)(C)C)O[Si](C)(C)C(C)(C)C (stereo unspecified)', 'growth inhibition', 1.1);

response.value for C[n+]1ccccc1C#N (field: growth inhibition) = -17.2

response.value for N/C=N/OC(=O)c1ccccc1 (field: growth inhibition) = 11.5

response.value for O=C1C(Cl)(Cl)C(=O)C(Cl)(Cl)C(=O)C1(Cl)Cl (field: growth inhibition) = 20.2
